All figures here come from ChEMBL document CHEMBL4651402.

- Tested on: SARS-CoV-2
- ASSAY INFO: microbe, parasite or virus in culture
- MEASUREMENT SETUP: Severe acute respiratory syndrome coronavirus 2, Vero C1008, 48 h
MEASUREMENT KIND: IC50

Reference set (6 entries):
1. Clc1ccc(-c2nn(Cc3ccccc3)c3c2CCNCC3)cc1 [JNJ-18038683 FREE BASE]
> 25.1 µM
2. O=C(O)C1CCCN(CCC=C2c3ccccc3CCc3ccccc32)C1 (centres undefined)
> 20 µM
3. O=C(NCCN1CCOCC1)c1ccc(Cl)cc1 [MOCLOBEMIDE]
> 20 µM
4. COc1cc2c(cc1OC)CC(=O)N(CCCN(C)C[C@H]1Cc3cc(OC)c(OC)cc31)CC2 [IVABRADINE]
> 20 µM
5. CC1=CCCC2C1(C)CCC(C)C2(C)Cc1cc(O)ccc1O (centres undefined)
> 20 µM
6. c1ccc2c3c([nH]c2c1)[C@H]1[C@H]2CC[C@H]([C@@H]4CCCN[C@@H]42)N1CC3
> 20 µM

// for each molecule below, give its IC50
1. C1N2CN3CN1CN(C2)C3 [METHENAMINE]
2. CO[C@H]1CC[C@H](n2c([C@H]3CCCC(=O)N3c3ccc(F)c(F)c3)nc3cc(-c4c(C)noc4C)ccc32)CC1 (relative stereo)
3. CN1C(CSCC(F)(F)F)Nc2cc(Cl)c(S(N)(=O)=O)cc2S1(=O)=O (centres undefined) [POLYTHIAZIDE]
4. Cc1cc2nc3c(=O)[nH]c(=O)nc-3n(C[C@H](O)[C@H](O)[C@H](O)CO)c2cc1C [RIBOFLAVIN]
5. CC(C)c1cccc(C(C)C)c1O [PROPOFOL]
6. Cn1cnc2c(F)c(Nc3ccc(Br)cc3Cl)c(C(=O)NOCCO)cc21 [SELUMETINIB]

["> 20 µM", "> 100 µM", "> 20 µM", "~11.2 µM", "> 20 µM", "> 20 µM"]

// for each molecule below, give its IC50
1. CC(C)NCC(O)c1ccc([N+](=O)O)cc1 (centres undefined)
2. CC(=O)N1CCC(=C2c3ccc(Cl)cc3CCc3cccnc32)CC1 [SCH-37370]
3. CCCn1c(=O)c2[nH]c(C3CCCC3)nc2n(CCC)c1=O
4. CCn1c(=O)c2ccccc2n(-c2cccc([N+](=O)[O-])c2)c1=O [NITRAQUAZONE]
5. Cc1cc(NS(=O)(=O)c2ccc(N)cc2)no1 [SULFAMETHOXAZOLE]

1: > 20 µM; 2: > 20 µM; 3: > 20 µM; 4: > 20 µM; 5: > 20 µM

// for each molecule below, give its IC50
1. CN(C)C(=O)Oc1cc(OC(=O)N(C)C)cc(C(O)CNC(C)(C)C)c1 (centres undefined) [BAMBUTEROL]
2. Nc1nc(N)c2nc(-c3cccc(O)c3)c(-c3cccc(O)c3)nc2n1 [TG100-115]

["> 20 µM", "> 20 µM"]

====

- Tested on: SARS-CoV-2
- ASSAY INFO: microbe, parasite or virus in culture
- MEASUREMENT SETUP: Severe acute respiratory syndrome coronavirus 2, Vero C1008, 48 h, read-out: pIC50 (converted)
Provide the reported IC50 of each item.

Reference set (2 entries):
1) CN1C(=O)CN=C(c2ccccc2F)c2cc(Cl)ccc21
> 20 µM
2) CC(COc1ccccc1)NC(C)C(O)c1ccc(O)cc1 (stereo not given)
> 20 µM

// for each compound below, give its IC50
1. CCCC[C@](C)(CO)Nc1nc(N)nc2cc(F)cnc12
2. CN(C)C(=O)COC(=O)Cc1ccc(OC(=O)c2ccc(NC(=N)N)cc2)cc1
3. CC[C@H]1CN2CC[C@H]1C[C@H]2[C@H](O)c1ccnc2ccc(OC)cc12 [HYDROQUININE]

> 20 µM
> 20 µM
15.5 µM
